- Study System: human recombinant PDE3A1 (Homo sapiens, UniProt Q14432)
- Sequence (Q14432 whole entry): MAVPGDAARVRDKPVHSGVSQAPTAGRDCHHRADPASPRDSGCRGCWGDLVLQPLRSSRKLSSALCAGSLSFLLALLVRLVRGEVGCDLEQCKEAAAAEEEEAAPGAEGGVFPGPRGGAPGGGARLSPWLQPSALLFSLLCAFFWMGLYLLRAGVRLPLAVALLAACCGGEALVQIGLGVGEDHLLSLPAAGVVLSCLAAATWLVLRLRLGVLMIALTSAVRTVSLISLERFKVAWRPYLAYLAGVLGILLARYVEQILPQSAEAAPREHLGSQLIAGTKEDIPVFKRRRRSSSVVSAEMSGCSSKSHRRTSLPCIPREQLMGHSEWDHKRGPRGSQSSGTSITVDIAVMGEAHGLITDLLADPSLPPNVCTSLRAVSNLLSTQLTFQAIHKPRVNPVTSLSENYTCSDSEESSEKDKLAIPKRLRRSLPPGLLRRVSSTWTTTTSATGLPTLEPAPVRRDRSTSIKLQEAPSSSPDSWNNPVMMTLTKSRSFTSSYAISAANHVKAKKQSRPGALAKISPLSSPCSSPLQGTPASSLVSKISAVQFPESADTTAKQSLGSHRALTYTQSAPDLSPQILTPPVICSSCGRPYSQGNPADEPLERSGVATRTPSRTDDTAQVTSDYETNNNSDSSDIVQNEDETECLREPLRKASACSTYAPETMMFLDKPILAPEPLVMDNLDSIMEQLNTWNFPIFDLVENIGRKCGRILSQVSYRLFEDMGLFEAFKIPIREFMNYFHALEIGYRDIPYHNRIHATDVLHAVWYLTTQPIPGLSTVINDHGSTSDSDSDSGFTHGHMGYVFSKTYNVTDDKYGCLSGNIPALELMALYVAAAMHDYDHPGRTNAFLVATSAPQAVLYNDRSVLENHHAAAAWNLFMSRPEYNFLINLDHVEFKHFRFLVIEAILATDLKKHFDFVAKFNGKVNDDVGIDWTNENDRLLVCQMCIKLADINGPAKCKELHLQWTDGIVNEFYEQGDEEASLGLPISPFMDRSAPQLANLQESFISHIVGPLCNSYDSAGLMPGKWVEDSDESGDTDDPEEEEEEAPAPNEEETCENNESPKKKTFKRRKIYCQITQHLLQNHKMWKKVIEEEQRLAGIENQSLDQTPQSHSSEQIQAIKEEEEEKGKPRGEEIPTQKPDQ
- Test Protocol: Inhibition of recombinant PDE activity, SPA test: PDE3A1
- Format: biochemical
- Setup Conditions: human recombinant enzyme; read-out: IC50 on PDE 3A1
Recorded IC50, one value per entry.

Cc1ccc(/C(O)=C2/C(=O)C(=O)N(c3ccccc3)C2=S)cc1 > 100 µM

Incoming: For the molecule CC(C)(C)CC(C)(C)c1ccc(OCC(=O)N/N=C/c2ccc(-c3cccc(C(=O)O)c3)o2)c([N+](=O)[O-])c1 , report IC50.
Outgoing: > 100 µM

----------
- Study System: human recombinant PDE5A1 (Homo sapiens, UniProt O76074)
- Test Protocol: Inhibition of recombinant PDE activity, SPA test: PDE5A1
- Setup Conditions: human recombinant enzyme; read-out: IC50 on PDE 5A1
Measurement Name: IC50 (µM)
// units = µM; emit number, no label

Incoming: For the molecule Cc1ccc(/C(O)=C2/C(=O)C(=O)N(c3ccccc3)C2=S)cc1 , report IC50.
Outgoing: 16

----------
- Study System: human recombinant PDE10A (Homo sapiens)
- Sequence (Q9Y233 290-1055 limits assumed): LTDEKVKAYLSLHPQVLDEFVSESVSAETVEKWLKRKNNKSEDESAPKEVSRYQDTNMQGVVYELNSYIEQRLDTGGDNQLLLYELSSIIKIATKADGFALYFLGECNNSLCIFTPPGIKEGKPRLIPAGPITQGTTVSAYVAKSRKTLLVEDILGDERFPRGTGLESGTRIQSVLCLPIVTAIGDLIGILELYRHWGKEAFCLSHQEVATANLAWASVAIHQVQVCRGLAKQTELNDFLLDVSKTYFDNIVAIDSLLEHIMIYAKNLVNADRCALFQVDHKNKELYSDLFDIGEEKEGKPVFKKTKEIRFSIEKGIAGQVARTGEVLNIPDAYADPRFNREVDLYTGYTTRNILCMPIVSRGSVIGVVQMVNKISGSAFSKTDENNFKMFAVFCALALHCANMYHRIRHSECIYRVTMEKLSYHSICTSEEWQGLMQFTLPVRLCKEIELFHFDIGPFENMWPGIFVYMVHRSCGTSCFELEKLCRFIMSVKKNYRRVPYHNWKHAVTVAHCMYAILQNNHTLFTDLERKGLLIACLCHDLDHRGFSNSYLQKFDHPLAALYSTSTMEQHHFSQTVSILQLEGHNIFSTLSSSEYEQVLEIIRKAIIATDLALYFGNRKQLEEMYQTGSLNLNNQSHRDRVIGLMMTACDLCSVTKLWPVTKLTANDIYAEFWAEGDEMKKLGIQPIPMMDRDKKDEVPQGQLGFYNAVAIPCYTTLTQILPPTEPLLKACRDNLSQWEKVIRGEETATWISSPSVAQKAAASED
- Test Protocol: Inhibition of recombinant PDE activity, SPA test: PDE10A
- Setup Conditions: human recombinant enzyme; read-out: IC50 on PDE 10A
Measurement Name: IC50 (µM)
// units = µM; emit number, no label

Incoming: For the molecule Cc1ccc(/C(O)=C2/C(=O)C(=O)N(c3ccccc3)C2=S)cc1 , report IC50.
Outgoing: 77

----------
- Study System: human recombinant PDE11A4 (Homo sapiens)
- Sequence (Q9HCR9 whole entry): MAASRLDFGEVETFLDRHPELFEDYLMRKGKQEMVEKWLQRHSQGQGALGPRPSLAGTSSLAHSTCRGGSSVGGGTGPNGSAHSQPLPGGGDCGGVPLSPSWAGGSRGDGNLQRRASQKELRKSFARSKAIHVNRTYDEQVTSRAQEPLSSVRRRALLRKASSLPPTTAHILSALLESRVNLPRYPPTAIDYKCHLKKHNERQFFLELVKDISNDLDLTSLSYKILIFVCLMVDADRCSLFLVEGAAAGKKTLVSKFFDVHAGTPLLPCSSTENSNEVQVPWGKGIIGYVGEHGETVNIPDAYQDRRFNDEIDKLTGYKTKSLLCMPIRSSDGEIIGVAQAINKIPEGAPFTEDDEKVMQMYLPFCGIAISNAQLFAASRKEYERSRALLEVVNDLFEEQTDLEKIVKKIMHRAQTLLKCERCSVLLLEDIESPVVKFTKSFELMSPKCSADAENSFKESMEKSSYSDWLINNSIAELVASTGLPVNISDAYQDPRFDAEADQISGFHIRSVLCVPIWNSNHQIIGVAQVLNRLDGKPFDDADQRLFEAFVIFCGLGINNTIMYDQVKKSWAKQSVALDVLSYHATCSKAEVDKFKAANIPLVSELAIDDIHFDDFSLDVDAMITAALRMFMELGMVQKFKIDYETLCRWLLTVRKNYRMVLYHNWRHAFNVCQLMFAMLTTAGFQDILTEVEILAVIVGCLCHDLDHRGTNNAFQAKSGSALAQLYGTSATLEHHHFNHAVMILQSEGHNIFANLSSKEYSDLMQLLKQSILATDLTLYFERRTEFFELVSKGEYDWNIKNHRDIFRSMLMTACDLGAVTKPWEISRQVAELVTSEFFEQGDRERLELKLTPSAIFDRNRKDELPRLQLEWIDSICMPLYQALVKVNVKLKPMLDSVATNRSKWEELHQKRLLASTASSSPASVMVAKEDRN
- Test Protocol: Inhibition of recombinant PDE activity, SPA test: PDE11A4
- Setup Conditions: human recombinant enzyme; read-out: IC50 on PDE 11A4
Measurement Name: IC50 (µM)
// units = µM; emit number, no label

Incoming: Enter measured IC50, system human recombinant PDE11A4 (Homo sapiens), for the compound shown: Cc1ccc(/C(O)=C2/C(=O)C(=O)N(c3ccccc3)C2=S)cc1 [Compound B]
Outgoing: 22

----------
- Study System: human recombinant PDE4B2 (Homo sapiens)
- Sequence (Q07343 1-564 isoform Q07343-2): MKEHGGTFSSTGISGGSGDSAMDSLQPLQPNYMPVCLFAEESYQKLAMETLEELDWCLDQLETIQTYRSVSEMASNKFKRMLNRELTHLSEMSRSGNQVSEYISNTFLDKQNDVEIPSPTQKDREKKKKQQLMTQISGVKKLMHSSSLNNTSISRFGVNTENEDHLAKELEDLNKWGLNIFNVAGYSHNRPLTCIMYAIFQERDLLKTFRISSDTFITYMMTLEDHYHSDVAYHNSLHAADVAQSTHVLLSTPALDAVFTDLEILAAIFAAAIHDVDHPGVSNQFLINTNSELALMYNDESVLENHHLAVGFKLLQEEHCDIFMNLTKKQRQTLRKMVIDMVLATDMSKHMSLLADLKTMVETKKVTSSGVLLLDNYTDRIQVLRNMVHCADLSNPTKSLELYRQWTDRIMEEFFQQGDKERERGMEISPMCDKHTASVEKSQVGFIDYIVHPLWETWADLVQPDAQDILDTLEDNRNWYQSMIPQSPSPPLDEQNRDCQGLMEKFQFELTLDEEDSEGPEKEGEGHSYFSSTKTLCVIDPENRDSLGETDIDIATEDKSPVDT
- Test Protocol: Inhibition of recombinant PDE activity, SPA test: PDE4B2
- Setup Conditions: human recombinant enzyme; read-out: IC50 on PDE 4B2
Measurement Name: pIC50
pIC50 is defined as minus the log10 of a concentration measured in mol/L.

Incoming: For the compound Cc1ccc(/C(O)=C2/C(=O)C(=O)N(c3ccccc3)C2=S)cc1 , report pIC50.
Outgoing: 5.03

----------
- Study System: human recombinant PDE2A3 (Homo sapiens, UniProt O00408)
- Sequence (O00408 whole entry): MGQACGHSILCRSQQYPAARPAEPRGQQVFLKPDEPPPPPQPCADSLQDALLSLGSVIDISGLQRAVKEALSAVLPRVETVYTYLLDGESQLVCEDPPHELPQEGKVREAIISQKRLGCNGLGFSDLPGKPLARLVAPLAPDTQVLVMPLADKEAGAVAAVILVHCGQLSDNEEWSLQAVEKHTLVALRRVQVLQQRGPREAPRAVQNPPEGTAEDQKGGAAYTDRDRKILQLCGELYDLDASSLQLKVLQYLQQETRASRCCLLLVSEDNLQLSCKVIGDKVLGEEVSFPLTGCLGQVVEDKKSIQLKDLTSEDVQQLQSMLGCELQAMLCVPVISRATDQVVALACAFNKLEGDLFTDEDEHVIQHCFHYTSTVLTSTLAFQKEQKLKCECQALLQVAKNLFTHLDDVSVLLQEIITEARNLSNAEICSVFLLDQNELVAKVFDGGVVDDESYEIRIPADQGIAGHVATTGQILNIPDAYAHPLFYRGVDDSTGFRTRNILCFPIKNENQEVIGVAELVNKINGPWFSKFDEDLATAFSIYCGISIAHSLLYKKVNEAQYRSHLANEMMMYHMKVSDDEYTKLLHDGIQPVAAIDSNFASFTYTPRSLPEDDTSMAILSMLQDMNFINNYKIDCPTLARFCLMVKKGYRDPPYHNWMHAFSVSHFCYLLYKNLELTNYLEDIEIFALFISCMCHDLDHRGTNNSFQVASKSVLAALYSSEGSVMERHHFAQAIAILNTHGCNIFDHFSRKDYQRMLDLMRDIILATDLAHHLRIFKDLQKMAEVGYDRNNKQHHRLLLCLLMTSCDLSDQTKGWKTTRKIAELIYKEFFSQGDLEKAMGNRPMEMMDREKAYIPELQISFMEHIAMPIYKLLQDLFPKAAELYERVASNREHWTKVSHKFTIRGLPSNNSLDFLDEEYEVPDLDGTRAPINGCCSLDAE
- Test Protocol: Inhibition of recombinant PDE activity, SPA test: PDE2A3
- Setup Conditions: human recombinant enzyme; read-out: IC50 on PDE 2A3
Measurement Name: pIC50
pIC50 is defined as minus the log10 of a concentration measured in mol/L.

Incoming: For the compound Cc1ccc(/C(O)=C2/C(=O)C(=O)N(c3ccccc3)C2=S)cc1 , report pIC50.
Outgoing: 4.89

----------
- Study System: human recombinant PDE1C1 (Homo sapiens, UniProt Q14123)
- Sequence (Q14123 1-634 isoform Q14123-2): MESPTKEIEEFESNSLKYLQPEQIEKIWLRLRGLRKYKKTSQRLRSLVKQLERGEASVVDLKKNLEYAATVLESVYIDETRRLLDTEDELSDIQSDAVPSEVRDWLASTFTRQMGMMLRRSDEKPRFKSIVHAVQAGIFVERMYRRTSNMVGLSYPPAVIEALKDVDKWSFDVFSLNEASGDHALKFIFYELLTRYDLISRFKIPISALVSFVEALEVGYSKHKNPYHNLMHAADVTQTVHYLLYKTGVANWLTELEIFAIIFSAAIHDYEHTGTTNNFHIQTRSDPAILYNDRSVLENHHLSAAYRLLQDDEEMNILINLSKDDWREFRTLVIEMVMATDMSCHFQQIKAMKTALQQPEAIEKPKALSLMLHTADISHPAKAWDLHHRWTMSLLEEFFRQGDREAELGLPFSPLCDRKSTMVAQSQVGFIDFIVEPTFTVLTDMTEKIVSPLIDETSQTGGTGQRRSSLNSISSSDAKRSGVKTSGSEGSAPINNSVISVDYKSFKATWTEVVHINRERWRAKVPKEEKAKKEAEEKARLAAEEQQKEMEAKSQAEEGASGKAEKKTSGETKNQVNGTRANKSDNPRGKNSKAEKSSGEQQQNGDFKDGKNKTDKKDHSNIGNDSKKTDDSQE
- Test Protocol: Inhibition of recombinant PDE activity, SPA test: PDE1C1
- Setup Conditions: human recombinant enzyme; read-out: IC50 on PDE 1C1
Measurement Name: IC50 (nM)

Cc1ccc(/C(O)=C2/C(=O)C(=O)N(c3ccccc3)C2=S)cc1 100
CC(C)(C)CC(C)(C)c1ccc(OCC(=O)N/N=C/c2ccc(-c3cccc(C(=O)O)c3)o2)c([N+](=O)[O-])c1 83
